Tested on: E. faecium VS
Experiment: In vitro MIC, 2010 surveillance isolates
Format: cell-based
Settings: Asia/Pac; N=106
outcome.measure: MIC90

                            smiles_notation     result
0  CO/N=C(\C(=O)N[C@@H]1C(=O)N2C(C(=O)O)=C(CSc3nc(=O)c(=O)[nH]n3C)CS[C@H]12)c1csc(N)n1  > 8 µg/mL
1  C[C@H]1COc2c(N3CCN(C)CC3)c(F)cc3c(=O)c(C(=O)O)cn1c23  > 4 µg/mL
2  C[C@H]1c2cccc(O)c2C(=O)C2=C(O)[C@]3(O)C(=O)C(C(N)=O)=C(O)[C@@H](N(C)C)[C@@H]3[C@@H](O)[C@@H]21  > 8 µg/mL
